test: gradient 5% acetonitrile 3 min, to 50% in 2 min, to 85% in 15 min, held 3 min, 100 µL/min; details: column: Zorbax Extend-C18 2.1 x 50 mm; eluents: water / acetonitrile, 0.1% formic acid
assay_metric: RP-LC retention time (s)

See these solved cases before continuing.
{"columns": ["molecule", "assay_metric", "val"],
 "data": [
  ["CCN(CC)C(=O)N1CCCN(S(C)(=O)=O)C(c2ccccc2)CC(=O)NCC1 (centres undefined)", "RP-LC retention time", 700],
  ["CC(=O)N1CCc2cc(N3CC(C(=O)Nc4cccc(C(F)(F)F)c4)CC3=O)ccc21 (centres undefined)", "RP-LC retention time", 791],
  ["Cc1ccccc1N1CCN(c2ncnc3scc(-c4cccs4)c23)CC1", "RP-LC retention time", 992],
  ["Cn1c(C2CCN(C(=O)Nc3ccc(F)cc3F)CC2)cc(=O)n2nccc12", "RP-LC retention time", 647],
  ["COc1ccc(Cl)cc1NC(=O)NCC(c1cccnc1)c1cn(C)c2ccccc12 (centres undefined)", "RP-LC retention time", 785]
]}

[1] CN(C)CCNC(=O)C1CCN(c2nc3ccc(-c4cccc(F)c4)nc3s2)CC1
[2] COc1ccc(-n2ncc3c(=O)n(Cc4nc(-c5ccc(C(F)(F)F)cc5)no4)cnc32)cc1
**Q:** Just tell me: smaller RP-LC retention time value, 1 or 2 ? // output: label of the selected item
**A:** 1
(1: 691 s, 2: 1090 s)

[a] Cc1ccc(N2CCC(NC(=O)NCc3ccc(F)cc3)C2=O)cc1C (centres undefined)
[b] COc1ccc(C(=O)NCC(c2cccn2C)N2CCCC2)c(OC)c1OC (centres undefined)
**Q:** Lower value for measured RP-LC retention time? Options: a , b Identify your pick by its label.
**A:** b

[I] O=C(CN1C(=O)C2CCCCN2c2ccc(C(=O)N3CCOCC3)cc21)Nc1ccc(Cl)cc1 (centres undefined)
[II] CC(=O)Nc1cc(C(=O)N2CCN(c3cc(C)ccc3C)CC2)c2ccc(C)nc2c1
[III] O=C(NCCc1ccccc1)NCC1CCN(Cc2ccco2)CC1
**Q:** Order the entries by their reported RP-LC retention time, beginning at the minimum. Form entry: labels listed in requested order.
**A:** III, I, II
(III: 562 s, I: 832 s, II: 1250 s)
